Target: T1, recombinant purification-tagged human GM-CSF receptor α extracellular domain (human, UniProt P15509 23-320)
T1 construct: Amino acids 1 to 298 of the mature receptor; also called purified GM-CSFRα extracellular domain; soluble extracellular domain of GM-CSFRα; not shown: N-terminal purification tag; Flag-tagged
T1 sequence: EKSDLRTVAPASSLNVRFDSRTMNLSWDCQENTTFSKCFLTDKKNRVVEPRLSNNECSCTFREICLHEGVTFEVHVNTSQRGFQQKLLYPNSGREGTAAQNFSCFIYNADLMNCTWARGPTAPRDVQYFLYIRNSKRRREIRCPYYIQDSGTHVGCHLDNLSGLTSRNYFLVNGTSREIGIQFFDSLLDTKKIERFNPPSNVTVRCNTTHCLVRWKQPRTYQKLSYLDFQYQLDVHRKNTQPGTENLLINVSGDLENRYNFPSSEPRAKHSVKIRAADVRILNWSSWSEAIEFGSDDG
Assay: SPR (BIAcore 2000); IgG4 captured on protein A, tagged receptor ECD as analyte; 1:1 Langmuir fit
endpoint-name: Kd (nM)
Expressed in nM, but write only the number.

{"binder": "Antibody 16 (antibody, V domains shown, also called Ab16) VH: QVQLVQSGAEVKKPGASVKVSCKISGHSLSELSIHWVRQTPTKGFEWMGGFDPEENEIVYAQRFQGRVTMTEDTSIDTAYLTLSSLRSDDTAVYYCSIVGSFSPLTMGLWGKGTMVTVSS VL: QAVLTQPSSVSGAPGQRVTISCTGSGSNIGAPYDVSWYQQLPGTAPKLLIYHNNKRPSGVPDRFSASKSGTSASLAITGLQAEDEADYYCATSDEILSGSVFGGGTKVTVL", "result-number": 1.14}
{"binder": "Antibody 14 (antibody, V domains shown, also called Ab14) VH: QVQLVQSGAEVKKPGASVKVSCKISGHSLSELSIHWVRQTPTKGFEWMGGFDPEENEIVYAQRFQGRVTMTEDTSIDTAYLTLSSLRSDDTAVYYCSILGSVTAWAFDYWGKGTMVTVSS VL: QAVLTQPSSVSGAPGQRVTISCTGSGSNIGAPYDVSWYQQLPGTAPKLLIYHNNKRPSGVPDRFSASKSGTSASLAITGLQADDEADYYCQSYDSEDRMTEFGGGTKVTVL", "result-number": 0.502}
{"binder": "Antibody 5 (antibody, V domains shown, also called Antibody 05; Ab5) VH: QVQLVQSGAEVKKPGASVKVSCKISGHSLSELSIHWVRQTPTKGFEWMGGFDPEENEIVYAQRFQGRVTMTEDTSIDTAYLTLSSLRSDDTAVYYCAIVGSFSGYPYRPWGQGTMVTVSS VL: QAVLTQPSSVSGAPGQRVTISCTGSGSNIGAPYDVSWYQQLPGTAPKLLIYHNNKRPSGVPDRFSASKSGTSASLAITGLQADDEADYYCQSYDSSLSGSVFGGGTKVTVL", "result-number": 0.847}
{"binder": "Antibody 7 (antibody, V domains shown, also called Antibody 07; Ab7) VH: QVQLVQSGAEVKKPGASVKVSCKISGHSLSELSIHWVRQTPTKGFEWMGGFDPEENEIVYAQRFQGRVTMTEDTSIDTAYLTLSSLRSDDTAVYYCAIVGSFSGPVYGLWGKGTMVTVSS VL: QAVLTQPSSVSGAPGQRVTISCTGSGSNIGAPYDVSWYQQLPGTAPKLLIYHNNKRPSGVPDRFSASKSGTSASLAITGLQADDEADYYCQSYDSSLSGSVFGGGTKVTVL", "result-number": 3.93}
{"binder": "Antibody 20 (antibody, V domains shown, also called Ab20) VH: QVQLVQSGAEVKKPGASVKVSCKISGHSLSELSIHWVRQTPTKGFEWMGGFDPEENEIVYAQRFQGRVTMTEDTSIDTAYLTLSSLRSDDTAVYYCSIVGSFSPLTLGLWGKGTMVTVSS VL: QAVLTQPSSVSGAPGQRVTISCTGSGSNIGAPYDVSWYQQLPGTAPKLLIYHNNKRPSGVPDRFSASKSGTSASLAITGLQADDEADYYCATVDEALSGSVFGGGTKVTVL", "result-number": 0.127}

Form: binder = Antibody 17 (antibody, V domains shown, also called Ab17) VH: QVQLVQSGAEVKKPGASVKVSCKISGHSLSELSIHWVRQTPTKGFEWMGGFDPEENEIVYAQRFQGRVTMTEDTSIDTAYLTLSSLRSDDTAVYYCSIVGSFSPLTMGLWGKGTMVTVSS VL: QAVLTQPSSVSGAPGQRVTISCTGSGSNIGAPYDVSWYQQLPGTAPKLLIYHNNKRPSGVPDRFSASKSGTSASLAITGLQADDEADYYCATVEDGLSGSVFGGGTKVTVL ; Kd = 0.193

Short answer for Antibody 12 (antibody, V domains shown, also called Ab12) VH: QVQLVQSGAEVKKPGASVKVSCKISGHSLSELSIHWVRQTPTKGFEWMGGFDPEENEIVYAQRFQGRVTMTEDTSIDTAYLTLSSLRSDDTAVYYCSIVGSFSGWAFDYWGKGTMVTVSS VL: QAVLTQPSSVSGAPGQRVTISCTGSGSNIGAPYDVSWYQQLPGTAPKLLIYHNNKRPSGVPDRFSASKSGTSASLAITGLQADDEADYYCQSYDSEPTEIRFGGGTKLTVL : Kd was 3.02

Reported Kd ( Antibody 15 (antibody, V domains shown, also called Ab15) VH: QVQLVQSGAEVKKPGASVKVSCKISGHSLSELSIHWVRQTPTKGFEWMGGFDPEENEIVYAQRFQGRVTMTEDTSIDTAYLTLSSLRSDDTAVYYCSIAGSIPGWAFDYWGKGTMVTVSS VL: QAVLTQPSSVSGAPGQRVTISCTGSGSNIGAPYDVSWYQQLPGTAPKLLIYHNNKRPSGVPDRFSASKSGTSASLAITGLQADDEADYYCQSYDSQLISAAFGGGTKVTVL ) = 1.03

Kd reported for this binder Antibody 4 (antibody, V domains shown, also called Antibody 04; Ab4) VH: QVQLVQSGAEVKKPGASVKVSCKISGHSLSELSIHWVRQTPTKGFEWMGGFDPEENEIVYAQRFQGRVTMTEDTSIDTAYLTLSSLRSDDTAVYYCAIVGSFSPPTYGYWGKGTMVTVSS VL: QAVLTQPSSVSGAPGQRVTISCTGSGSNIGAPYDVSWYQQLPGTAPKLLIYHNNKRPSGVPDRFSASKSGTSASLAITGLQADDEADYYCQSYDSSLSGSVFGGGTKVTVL : 4.07

Lab note: measured Kd of Antibody 2 (antibody, V domains shown, also called Antibody 02; Ab2) VH: QVQLVQSGAEVKKPGASVKVSCKISGHSLSELSIHWVRQTPTKGFEWMGGFDPEENEIVYAQRFQGRVTMTEDTSIDTAYLTLSSLRSDDTAVYYCSIVGSFSGPALRPWGKGTMVTVSS VL: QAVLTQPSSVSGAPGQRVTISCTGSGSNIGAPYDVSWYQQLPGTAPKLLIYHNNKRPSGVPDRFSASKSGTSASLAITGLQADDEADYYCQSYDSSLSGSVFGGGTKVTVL was 0.376

Origin of the recorded values: patent US20120141464A1
